Attribution: ChEMBL document CHEMBL1201862

- Test system: RXF 393
- experiment_description: NCI tumour cell line growth inhibition, 48 h
Activity calls are given as the source filed them. Cut-off read from the data, not from the text of the source: active = GI50 up to about 1.1 µM and inactive = higher.
Returns: one label drawn from 1.0 for active, 0.0 for inactive

>  <compound>
CCCCCNC(=O)OC1CCn2c1nc1c2C(=O)C(C)=C(N2CC2)C1=O (stereo not given)

>  <target_or_test_system>
RXF 393

>  <class_label>
1.0

$$$$
>  <compound>
COc1ccc(S(=O)(=O)NC(C)C(=O)O)cc1 (stereo not given)

>  <target_or_test_system>
RXF 393

>  <class_label>
0.0

$$$$
>  <compound>
COc1ccc(OC)c(NC(=O)c2c(Cl)c(Cl)c(Cl)c(Cl)c2-c2nc3ccccc3[nH]2)c1

>  <target_or_test_system>
RXF 393

>  <class_label>
0.0

$$$$

Field: outcome | Entry: Nc1ccccc1N/C=C\C(=O)C(Cl)(Cl)Cl
0.0

Field: outcome | Entry: N=C(N)NS(=O)(=O)c1ccc(Nc2c3ccccc3nc3c(C(=O)Nc4ccc(S(N)(=O)=O)cc4)ccc(Cl)c23)cc1
0.0
